Values were extracted from patent US8691758B2.

Target: UniProt:P27958
Sequence (P27958 1658-1711): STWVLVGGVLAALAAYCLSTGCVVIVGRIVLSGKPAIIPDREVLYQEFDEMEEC
Sequence (P27958 1027-1208): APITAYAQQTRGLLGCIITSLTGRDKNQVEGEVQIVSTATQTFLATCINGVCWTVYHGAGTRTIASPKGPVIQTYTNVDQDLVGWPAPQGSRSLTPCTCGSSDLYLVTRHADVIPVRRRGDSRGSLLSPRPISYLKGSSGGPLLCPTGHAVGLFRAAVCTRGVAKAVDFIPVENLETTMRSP
Experiment: HCV Ki assay (HPLC microbore separation of 5AB substrate and products)
Details: 25 nM tNS3, 25 μM KK4A, 25 μM 5AB substrate, 20 min at 30 C
Protocol: HPLC Microbore Method for Separation of 5AB Substrate and Products • NH2-Glu-Asp-Val-Val-(alpha)Abu-Cys-Ser-Met-Ser-Tyr-COOH A stock solution of 20 mM 5 AB (or concentration of your choice) was made in DMSO w/0.2M DTT. This was stored in aliquots at −20 C. Buffer: 50 mM HEPES, pH 7.8; 20% glycerol; 100 mM NaCl Total assay volume was 100 μL The buffer, KK4A, DTT, and tNS3 were combined; distributed 78 μL each into wells of 96 well plate. This was incubated at 30 C for ˜5-10 min. […]
Recorded Ki, one value per entry.

Some compounds with known Ki results, for comparison:
CCC[C@H](NC(=O)[C@@H]1CC2(CN1C(=O)[C@@H](NC(=O)[C@@H](NC(=O)c1cnccn1)C1CCCCC1)C(C)(C)C)SCCCS2)C(=O)C(=O)NC1CC1 : < 500 nM
CCC[C@H](NC(=O)[C@@H]1CC2(CN1C(=O)[C@@H](NC(=O)[C@@H](NC(=O)c1cnccn1)C1CCCCC1)C(C)(C)C)SCCS2)C(=O)C(=O)NC1CC1 : < 500 nM

Consider the additional compound presented here.
Specify measured Ki for CCC[C@H](NC(=O)[C@@H]1CC2(CN1C(=O)[C@@H](NC(=O)[C@@H](NC(=O)c1[nH]c(C)c(C)c1C(C)=O)C1CCCCC1)C(C)(C)C)SCCCS2)C(=O)C(=O)NC1CC1 .
< 500 nM
